Form field: manual score (one value per entry).
- assayed.system: G protein-activated inward rectifier potassium channel 2 (Homo sapiens) + G protein-activated inward rectifier potassium channel 1 (Homo sapiens) (UniProt P48051+P48549)
- Sequence (P48051 whole entry, looked up): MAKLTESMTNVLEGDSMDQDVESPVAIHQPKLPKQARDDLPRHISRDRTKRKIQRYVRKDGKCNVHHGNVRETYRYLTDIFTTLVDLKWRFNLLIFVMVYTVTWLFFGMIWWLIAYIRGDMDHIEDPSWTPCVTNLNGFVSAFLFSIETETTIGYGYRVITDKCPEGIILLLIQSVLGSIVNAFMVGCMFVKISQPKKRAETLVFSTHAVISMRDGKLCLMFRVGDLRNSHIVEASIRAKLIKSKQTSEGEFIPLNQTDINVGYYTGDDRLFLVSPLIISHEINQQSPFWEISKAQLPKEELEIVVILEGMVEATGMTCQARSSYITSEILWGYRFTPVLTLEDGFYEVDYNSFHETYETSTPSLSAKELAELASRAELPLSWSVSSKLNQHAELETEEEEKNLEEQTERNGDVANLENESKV
- Sequence (P48549 whole entry, looked up): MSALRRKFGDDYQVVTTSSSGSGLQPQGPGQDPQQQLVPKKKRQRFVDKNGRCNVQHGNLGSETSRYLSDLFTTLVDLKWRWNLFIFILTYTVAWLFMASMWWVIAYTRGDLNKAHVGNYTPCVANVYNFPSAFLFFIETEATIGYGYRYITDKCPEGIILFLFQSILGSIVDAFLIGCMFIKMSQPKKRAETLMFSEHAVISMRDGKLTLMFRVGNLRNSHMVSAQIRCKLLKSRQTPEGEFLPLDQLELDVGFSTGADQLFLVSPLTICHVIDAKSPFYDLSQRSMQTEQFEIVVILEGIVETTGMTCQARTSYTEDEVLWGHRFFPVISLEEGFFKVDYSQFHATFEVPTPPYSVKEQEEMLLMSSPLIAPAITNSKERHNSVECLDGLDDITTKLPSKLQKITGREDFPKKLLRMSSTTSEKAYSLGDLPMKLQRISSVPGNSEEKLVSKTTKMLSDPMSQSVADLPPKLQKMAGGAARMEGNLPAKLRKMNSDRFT
- method.description: GIRK1/2 thallium flux modulators, retest, confirmation, cell-based, HEK293 rmGlu8/hGIRK1/2, FluoZin-2 (AID 623911)
- assay.context: HEK293 rmGlu8/hGIRK1/2, thallium flux FluoZin-2; actives lie on both sides; glutamate co-added at its EC20 level
In all, about 2,100 compounds went through this assay and about 770 (37%) were called active. The list shows a part of the results.
experimental.readout: manual score

• CC(C)n1c(CCC(=O)O)ccc1-c1ccccc1 = 0
• CCN(CC(=O)c1c(N)n(C)c(=O)n(C)c1=O)c1cccc2ccccc12 = 0
• Fc1ccc(NC(=S)NN=C2CCCCCC2)cc1 = 0
• O=C(CSc1nc(O)cc(=O)n1-c1ccccc1)N1CCCCC1 = 0
• Cc1ccc(-c2n[nH]c(=S)n2/N=C/c2cccs2)cc1 = 0.5
• O=C(NC1CC1)c1ccc(CSCc2cccc(F)c2)o1 = 0
• CC1=CC(C)(C)n2c(O)c(N=NC(N)=S)c3cccc1c32 = 0
• FC(F)(F)c1ccc2nnc(-c3c(Cl)cccc3Cl)n2c1 = 0
• Oc1c(N=Nc2ccccn2)ccc2ccccc12 = 1
• Oc1ccc2ccccc2c1N=Nc1ccccn1 = 0
• C/C(=N\NC(=S)Nc1ccc(F)cc1)c1ccc2c(c1)OCCO2 = 1
• Cc1sc2nc(C3CC3)nc(SCC(=O)N3CC(=O)Nc4ccccc43)c2c1C = 0
• Cn1cccc1/C=N/n1c(-c2ccc(C(C)(C)C)cc2)n[nH]c1=S = 0
• COCCCN1C(=O)C(=O)/C(=C(/O)c2ccc(C)cc2)C1c1ccccc1 (stereo not drawn) = 0
• CCc1nc(SCC(=O)N2CC(=O)Nc3ccccc32)c2c(C)c(C)sc2n1 = 1
• CN(C=O)CP(=O)(O)CCN1CCCC1=O = 0
• CC(C)n1c(O)c(N=Nc2ccccn2)c2ccccc21 = 0
• CC12CN(Cc3ccccc3)CC(C)(CN(Cc3ccccc3)C1)C2=NO = -1

###

- assayed.system: G protein-activated inward rectifier potassium channel 2 (Homo sapiens) + G protein-activated inward rectifier potassium channel 1 (Homo sapiens) (UniProt P48051+P48549)
- method.description: GIRK1/2 thallium flux modulators, retest, confirmation, cell-based, HEK293 rmGlu8/hGIRK1/2, FluoZin-2 (AID 623911)
- assay.context: HEK293 rmGlu8/hGIRK1/2, thallium flux FluoZin-2; actives lie on both sides; glutamate co-added at its EC20 level
Out of some 2,100 compounds screened, about 770 (37%) were called active.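 Rule for the calls: active = by-eye trace score of 1 for enhancers or -1 for inhibitors, so actives lie on both sides (some results past the limit were not filed as active); inactive = score 0, or 3 fluorescent, or 4 baseline rise.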 The list shows a part of the results.
Labels: active, inactive

- CCn1c(SCC(=O)Nc2oc(-c3ccccc3)c(-c3ccccc3)c2C#N)nnc1-c1ccco1: inactive
- O=S(=O)(c1ccccc1)N1CCN(C(=S)Nc2ccc(F)cc2)CC1: inactive
- Oc1cccc(NC(=S)Nc2ccc(SC(F)F)cc2)c1: active
- COC(=O)C1=NN(C(=O)c2ccc(Cl)cc2)C(O)(c2ccccc2)C1 (stereo not given): active
- COC(=O)COn1c(SC(C)C)nc2ccccc2c1=O: inactive
- CCOC(=O)c1ccccc1NC(=O)CSc1nnc(Cc2cccn2C)n1-c1ccc(C)cc1: active
- CCOC(=O)C1=C(NC(=S)NC(=O)c2ccccc2)c2ccccc2CC1(C)C: inactive
- NS(=O)(=O)c1ccc(S(=O)(=O)N2CCCC2)cc1: inactive
- Cc1ccc(C2CC2C(=O)NNC(=S)Nc2cccc(Cl)c2)cc1 (stereo not given): inactive
- CCOC(=O)c1c(C)[nH]c(C(=O)COC(=O)CNC(=O)c2ccc(Cl)cc2)c1C: inactive
